Record form. Attribute: pIC50. Fill in for each entry.
biological target: JAK1 (Homo sapiens)
Sequence (P23458 whole entry): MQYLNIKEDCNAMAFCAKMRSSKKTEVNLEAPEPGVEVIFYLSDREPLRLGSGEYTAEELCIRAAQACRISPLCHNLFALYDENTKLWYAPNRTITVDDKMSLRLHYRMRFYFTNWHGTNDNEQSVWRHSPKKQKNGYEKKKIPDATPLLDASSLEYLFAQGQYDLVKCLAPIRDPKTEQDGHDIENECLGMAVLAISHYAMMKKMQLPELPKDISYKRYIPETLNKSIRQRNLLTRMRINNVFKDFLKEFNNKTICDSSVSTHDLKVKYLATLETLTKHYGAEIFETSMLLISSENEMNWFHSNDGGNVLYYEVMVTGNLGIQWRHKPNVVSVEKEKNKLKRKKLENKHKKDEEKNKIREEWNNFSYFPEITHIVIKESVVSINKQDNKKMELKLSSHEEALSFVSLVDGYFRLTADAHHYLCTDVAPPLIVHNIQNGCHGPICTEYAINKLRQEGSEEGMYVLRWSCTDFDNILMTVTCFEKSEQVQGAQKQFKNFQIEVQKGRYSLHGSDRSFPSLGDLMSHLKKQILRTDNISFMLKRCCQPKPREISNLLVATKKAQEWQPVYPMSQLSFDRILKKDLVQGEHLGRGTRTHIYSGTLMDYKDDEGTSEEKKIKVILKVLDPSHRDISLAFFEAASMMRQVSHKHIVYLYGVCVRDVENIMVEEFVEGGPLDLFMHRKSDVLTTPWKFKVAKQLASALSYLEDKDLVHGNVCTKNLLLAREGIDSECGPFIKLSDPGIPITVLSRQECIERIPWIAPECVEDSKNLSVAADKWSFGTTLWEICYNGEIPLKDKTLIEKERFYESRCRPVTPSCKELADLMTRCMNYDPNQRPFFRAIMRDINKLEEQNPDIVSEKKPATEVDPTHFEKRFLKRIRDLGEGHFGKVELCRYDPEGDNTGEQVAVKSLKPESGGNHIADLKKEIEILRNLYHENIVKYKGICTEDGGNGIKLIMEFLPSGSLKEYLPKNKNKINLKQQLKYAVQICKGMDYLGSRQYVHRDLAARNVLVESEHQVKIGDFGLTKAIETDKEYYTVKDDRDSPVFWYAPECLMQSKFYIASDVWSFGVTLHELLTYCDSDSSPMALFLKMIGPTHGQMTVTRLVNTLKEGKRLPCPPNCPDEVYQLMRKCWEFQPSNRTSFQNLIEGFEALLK
pIC50: −log10 of the molar value.

Example results:
# COMPOUND, pIC50
data = [
    ("Cn1cc(-c2cc3nccn3c(-c3cnn(C4(CC#N)COC4)c3)n2)cn1 [Example 24]", "7.00 to 8.00"),
    ("N#CCC(C1CC1)n1cc(-c2nc(-c3cnn(C4COC4)c3)cc3nccn23)cn1 (stereo not shown) [Example 38]", "6.00 to 7.00"),
    ("CCS(=O)(=O)N1CC(CC#N)(n2cc(-c3nc(-c4cnn(C)c4)cc4nccn34)cn2)C1 [Example 97]", "6.00 to 7.00"),
]

Batch request: pIC50 for each of the following compounds.
1. N#CCC(C1CC1)n1cc(-c2nc(-c3ccc4c(c3)CCNC4)cc3nccn23)cn1 (stereo not shown) [Example 52]
2. CCCN1CC(CC#N)(n2cc(-c3nc(-c4cnn(C)c4)cc4nccn34)cn2)C1 [Example 81]

1. 7.00 to 8.00
2. 6.00 to 7.00

Batch request: pIC50 for each of the following compounds.
1. Cn1cc(-c2cc3nccn3c(-c3cnn(C4(CC#N)CCN(C(=O)OC(C)(C)C)CC4)c3)n2)cn1 [Example 21]
2. Cn1cc(-c2cc3nccn3c(-c3cnn(C(CC#N)c4ccncc4)c3)n2)cn1 (stereo not shown) [Example 8]

< 6.00
6.00 to 7.00

====

Target: JAK3 (Homo sapiens, UniProt P52333)
Sequence (P52333 1-1124): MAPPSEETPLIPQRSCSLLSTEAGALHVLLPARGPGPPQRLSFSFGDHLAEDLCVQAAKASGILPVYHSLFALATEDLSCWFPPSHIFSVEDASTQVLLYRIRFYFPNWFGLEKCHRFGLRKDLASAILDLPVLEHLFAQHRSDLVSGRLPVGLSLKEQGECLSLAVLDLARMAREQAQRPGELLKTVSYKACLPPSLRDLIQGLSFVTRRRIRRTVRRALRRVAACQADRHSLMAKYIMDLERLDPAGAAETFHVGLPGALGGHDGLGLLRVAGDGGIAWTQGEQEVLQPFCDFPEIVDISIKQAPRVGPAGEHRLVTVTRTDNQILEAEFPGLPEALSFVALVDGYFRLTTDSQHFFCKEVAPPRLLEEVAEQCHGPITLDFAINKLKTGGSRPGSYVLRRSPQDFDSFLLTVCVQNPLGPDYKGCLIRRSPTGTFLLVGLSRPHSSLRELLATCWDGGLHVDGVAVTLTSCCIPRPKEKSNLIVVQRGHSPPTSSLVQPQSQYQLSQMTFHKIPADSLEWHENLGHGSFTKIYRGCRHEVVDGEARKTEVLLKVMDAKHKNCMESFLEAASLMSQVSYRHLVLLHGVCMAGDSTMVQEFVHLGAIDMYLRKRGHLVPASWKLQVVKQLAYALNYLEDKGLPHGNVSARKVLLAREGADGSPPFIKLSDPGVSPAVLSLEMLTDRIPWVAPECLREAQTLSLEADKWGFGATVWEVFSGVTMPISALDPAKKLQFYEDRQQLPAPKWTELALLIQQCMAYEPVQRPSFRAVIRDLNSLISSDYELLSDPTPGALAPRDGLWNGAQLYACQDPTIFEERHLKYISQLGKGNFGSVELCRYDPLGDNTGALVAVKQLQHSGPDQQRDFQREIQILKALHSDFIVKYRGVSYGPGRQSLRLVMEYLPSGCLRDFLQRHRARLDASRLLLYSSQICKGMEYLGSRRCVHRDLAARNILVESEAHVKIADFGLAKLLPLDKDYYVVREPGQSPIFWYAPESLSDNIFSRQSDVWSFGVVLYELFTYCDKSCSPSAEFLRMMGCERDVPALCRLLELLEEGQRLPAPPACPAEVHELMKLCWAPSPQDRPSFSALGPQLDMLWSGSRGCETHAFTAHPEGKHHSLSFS
Record form. Attribute: IC50. Fill in for each entry.

Example results:
# COMPOUND, RESULT
data = [
    ("Cn1cc(-c2cc3nccn3c(-c3cnn(C4(CC#N)CC5(CCOCC5)C4)c3)n2)cn1", "> 1 µM"),
    ("Cn1cc(-c2cc3ncc(C#N)n3c(-c3cnn(C(CC#N)C4CC4)c3)n2)cn1 (centres unmarked)", "> 1 µM"),
    ("CC(C#N)Cn1cc(-c2nc(-c3ccc(N4CCOCC4)cc3)cc3nccn23)cn1 (centres unmarked)", "0.1 to 1 µM"),
    ("COc1cncc(C(CC#N)n2cc(-c3nc(-c4cnn(C)c4)cc4nccn34)cn2)c1 (centres unmarked)", "> 1 µM"),
]

Turning to the following compound.
Return IC50 (reported value) for this compound: COc1ncc(-c2cc3nccn3c(-c3cnn(C4(CC#N)CN(S(=O)(=O)C5CC5)C4)c3)n2)cn1
> 1 µM

====

As an illustration, consider measured IC50 for compounds on JAK1 (Homo sapiens).

# COMPOUND, TEST_READOUT, RESULT
records = [
    ("Cn1cc(-c2cc3nccn3c(-c3cnn(C(CC#N)C4CCC4)c3)n2)cn1 (centres unmarked)", "IC50", "10 to 100 nM"),
    ("Cn1cc(-c2cc3nccn3c(-c3cnn(C4(CC#N)CN(C(=O)OC(C)(C)C)C4)c3)n2)cn1", "IC50", "> 1000 nM"),
    ("N#CCC(C1CC1)n1cc(-c2nc(-c3cnn(Cc4cccnc4)c3)cc3nccn23)cn1 (centres unmarked)", "IC50", "100 to 1000 nM"),
    ("Cn1cc(-c2cc3nccn3c(-c3ccn(C(CC#N)C4CC4)c3)n2)cn1 (centres unmarked)", "IC50", "10 to 100 nM"),
    ("CN1CCc2ccc(-c3cc4nccn4c(-c4cnn(C(CC#N)C5CC5)c4)n3)cc2C1 (centres unmarked)", "IC50", "10 to 100 nM"),
    ("CN1CCC(c2ccc(-c3cc4nccn4c(-c4cnn(C(CC#N)C5CCCC5)c4)n3)cc2)CC1 (single isomer, unassigned) [Example 111]", "IC50", "100 to 1000 nM"),
    ("CC(C)n1cc(-c2cc3nccn3c(-c3cnn(C4(CC#N)CN(CC(F)(F)F)C4)c3)n2)cn1", "IC50", "100 to 1000 nM"),
    ("Cc1ncc(-c2cc3nccn3c(-c3cnn(C4(CC#N)CN(S(=O)(=O)C5CC5)C4)c3)n2)s1", "IC50", "10 to 100 nM"),
    ("COc1ccc(-c2cc3nccn3c(-c3cnn(C4(CC#N)CN(S(=O)(=O)C(F)(F)F)C4)c3)n2)cc1", "IC50", "< 10 nM"),
    ("Cn1cc(-c2cc3nccn3c(-c3ccn(C4(CC#N)CN(S(=O)(=O)C5CC5)C4)c3)n2)cn1", "IC50", "10 to 100 nM"),
]

Batch request: IC50 for each of the following compounds.
1. CN1CCN(c2ccc(-c3cc4nccn4c(-c4cnn(C(CC#N)C5CC5)c4)n3)cn2)CC1 (centres unmarked)
2. Cn1cc(-c2cc3nccn3c(-c3cnn(C(CC#N)C(C)(C)C)c3)n2)cn1 (centres unmarked)
3. Cn1ccc(-c2cc3nccn3c(-c3ccn(C4(CC#N)CN(CC(F)(F)F)C4)n3)n2)cc1=O
4. CC(C)Cn1cc(-c2cc3nccn3c(-c3cnn(C(CC#N)C4CC4)c3)n2)cn1 (centres unmarked)

1: 100 to 1000 nM; 2: 100 to 1000 nM; 3: > 1000 nM; 4: 100 to 1000 nM

====

Record form. Attribute: IC50. Fill in for each entry.
Target: Human Tyk2 kinase domain (Homo sapiens)
Sequence (P29597 886-1187): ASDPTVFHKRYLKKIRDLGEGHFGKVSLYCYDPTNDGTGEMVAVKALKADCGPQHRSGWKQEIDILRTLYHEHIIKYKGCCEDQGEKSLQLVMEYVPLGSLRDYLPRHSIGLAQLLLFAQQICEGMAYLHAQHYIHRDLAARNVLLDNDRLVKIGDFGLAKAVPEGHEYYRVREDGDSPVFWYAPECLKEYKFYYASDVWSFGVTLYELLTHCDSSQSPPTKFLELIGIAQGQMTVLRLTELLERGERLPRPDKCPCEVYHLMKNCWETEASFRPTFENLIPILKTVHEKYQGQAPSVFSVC

Example results:
# COMPOUND, TARGET_DESC, RESULT
measured = [
    ("CC(C)n1cc(-c2cc3nccn3c(-c3cnn(C4(CC#N)CN(S(=O)(=O)C(F)(F)F)C4)c3)n2)cn1 [Example 101]", "Human Tyk2 kinase domain (Homo sapiens)", "< 10 nM"),
    ("CC(C)CN1CC(CC#N)(n2cc(-c3nc(-c4cnn(C)c4)cc4nccn34)cn2)C1 [Example 85]", "Human Tyk2 kinase domain (Homo sapiens)", "10 to 100 nM"),
    ("CN1CCC(c2ccc(-c3cc4nccn4c(-c4cnn(C(CC#N)C5CCCC5)c4)n3)cc2)CC1 (single isomer, unassigned) [Example 112]", "Human Tyk2 kinase domain (Homo sapiens)", "< 10 nM"),
    ("Cn1cc(-c2cc3nccn3c(-c3cnn(C4(CC#N)CC5(COC5)C4)c3)n2)cn1 [Example 148]", "Human Tyk2 kinase domain (Homo sapiens)", "< 10 nM"),
    ("Cn1cc(-c2cc3nccn3c(-c3cnn(C4(CC#N)CCCC4)c3)n2)cn1 [Example 23]", "Human Tyk2 kinase domain (Homo sapiens)", "10 to 100 nM"),
]

Turning to the following compound.
Return IC50 (reported value) for this compound: Cc1ncc(-c2cc3nccn3c(-c3cnn(C4(CC#N)CN(S(=O)(=O)C(F)(F)F)C4)c3)n2)s1 [Example 139]
< 10 nM
